The origin of these recorded values is ChEMBL document CHEMBL1144392.

- METHOD_SUMMARY: Half life in the Sprague Dawley rats; (n = 3)
- Format: ADME
- EXPERIMENTAL_CONDITIONS: rat, in vivo
We use 30 min as the dividing line for half-life: on or above the line is Y, below is N.

Here's what some known entries look like.
COC(=O)c1ccccc1-c1ccc(CNc2nccc(C)c2NC(=O)CC(F)(F)F)cc1	N
COC(=O)c1ccccc1-c1ccc([C@@H](C)Nc2nccc(C)c2NC(=O)CC#N)cc1	N
Cc1ccnc(NCc2ccc(-c3ccccc3C(=O)O)cc2)c1NC(=O)CC#N	Y
COC(=O)c1ccccc1-c1ccc([C@@H](C)Nc2nccc(C)c2NC(=O)CC(F)(F)F)cc1	Y

Ask: Would you say CCCCC(=O)Nc1cccnc1NCc1ccc(-c2ccccc2C(=O)OC)cc1 shows half-life at minimum 30 min?
Result: N

Ask: Hello, I need to know if COC(=O)c1ccccc1-c1ccc(CNc2ncccc2NC(=O)CC#N)cc1 has measured half-life not below 30 min. Thanks!
Result: Y

Ask: Does half-life meet or surpass 30 min for CNC(=O)c1ccccc1-c1ccc(CNc2nccc(C)c2NC(=O)CC(F)(F)F)cc1 ?
Result: Y

Ask: half-life >= 30 min for CNC(=O)c1ccccc1-c1ccc(CNc2ncccc2NC(=O)CC(F)(F)F)cc1 ?
Result: N

Ask: Decide: is the reported value of half-life for CCCC(=O)Nc1cccnc1NCc1ccc(-c2ccccc2C(=O)OC)cc1 equal to or greater than 30 min?
Result: N

* * *

- METHOD_SUMMARY: Half life in the Sprague Dawley rats; (n = 3); ND = not determined
- Assay type: ADME
- EXPERIMENTAL_CONDITIONS: rat, in vivo
MEASURED_ENDPOINT: half-life (min)
The figure you give is taken to be in min; do not add the unit.

Ask: Recall and state the measured half-life for COC(=O)c1ccccc1-c1ccc(CNc2ncccc2NC(=O)CC(F)(F)F)cc1 .
Result: 12
